Assay remarks: physchem
Property name: pKa at 0.3 h
Hey, just send me the number, nothing else.

Reference set (5 entries):
Compound	Property name	Measurement
Cc1ccc(S(=O)(=O)NCCc2ccc(Oc3ccc(F)c(F)c3)cc2)cc1C(=O)O	pKa at 0.3 h	3.4
Cc1cc(O[C@H](CCC(F)(F)F)c2ccc(C(=O)NCCC(=O)O)cc2)cc(C)c1-c1ccc(C(C)(C)C)cc1	pKa at 0.3 h	4.4
Cc1nn(-c2cnc(OCC(C)C)c(Cl)c2)c2ccc(C(=O)NS(C)(=O)=O)cc12	pKa at 0.3 h	3.6
O=S(=O)(Nc1nncs1)c1cc(Cl)c(Oc2ccc(C(F)(F)F)cc2-c2ccnnc2)cc1F	pKa at 0.3 h	4.1
CCC[C@H](c1ccc(C(=O)NCCC(=O)O)cc1)[C@H](c1ccc(Cl)cc1)c1c[nH]c2c(F)cc(C)cc12	pKa at 0.3 h	4.1

Query: Please give measured pKa at 0.3 h of the following entry: "CN(C)C(=O)CCS[C@H](SCCC(=O)O)c1cccc(/C=C/c2ccc3ccc(Cl)cc3n2)c1"
Response: 4.4

Query: Give the value of pKa at 0.3 h reported for the following: CCOc1cc(CC(=O)N[C@@H](CC(C)C)c2ccccc2N2CCCCC2)ccc1C(=O)O [REPAGLINIDE]
Response: 4.4

Query: Look up and state reported pKa at 0.3 h for "CCCCc1nc(C)c(CC(=S)N(C)C)c(=O)n1Cc1ccc(-c2ccccc2-c2nnn[nH]2)cc1"
Response: 4.3

###

Assay remarks: in vitro
Assay context: cynomolgus monkey, plasma
Description: Fraction unbound in cynomolgus monkey plasma
Entries and their fraction unbound
Just the number, please.

Consider the reported fraction unbound for these molecules:
Molecule	Property name	Measurement
CCOc1cc(CC(=O)N[C@@H](CC(C)C)c2ccccc2N2CCCCC2)ccc1C(=O)O [REPAGLINIDE]	fraction unbound	0.0124
COc1ccc(Cl)cc1C(=O)NCCc1ccc(S(=O)(=O)NC(=O)NC2CCCCC2)cc1 [GLYBURIDE]	fraction unbound	0.00179
Nc1[nH]ncc1-c1cc(Cl)ccc1Oc1cc(F)c(S(=O)(=O)Nc2cscn2)cc1Cl	fraction unbound	0.00164
CC(C)c1nc(N(C)S(C)(=O)=O)nc(-c2ccc(F)cc2)c1/C=C/[C@@H](O)C[C@@H](O)CC(=O)O	fraction unbound	0.155
O=C(O)[C@@H]1CCC[C@H]1C(=O)c1ccc(-c2ccc(Nc3nc4ccc(F)cc4s3)c(F)c2)cc1	fraction unbound	0.0014

Query: Answer with the recorded fraction unbound of "Cc1nn(-c2cnc(OCC(C)C)c(Cl)c2)c2ccc(C(=O)NS(C)(=O)=O)cc12" only.
Response: 0.002

Query: Identify the reported fraction unbound for the following entry. "Cc1ccc(S(=O)(=O)NCCc2ccc(Oc3ccc(F)c(F)c3)cc2)cc1C(=O)O"
Response: 0.00107

Query: Return fraction unbound (reported value) for this molecule: "CC[C@H](C)C(=O)O[C@H]1C[C@H](O)C=C2C=C[C@H](C)[C@H](CC[C@@H](O)C[C@@H](O)CC(=O)O)[C@H]21"
Response: 0.649

###

Assay remarks: in vivo
Assay context: cynomolgus monkey, blood and plasma, iv
Description: Ratio of drug level in cynomolgus monkey blood to plasma administered through iv dosing by LC-MS/MS analysis
Strictly below 0.7 in blood plasma ratio: t. Otherwise: f.

Some entries whose results are on file:
Compound	Classification
CC(C)(C)OC(=O)N[C@H]1CCCCC/C=C\[C@@H]2C[C@@]2(C(=O)NS(=O)(=O)C2CC2)NC(=O)[C@@H]2C[C@@H](OC(=O)N3Cc4cccc(F)c4C3)CN2C1=O	f
COc1ccccc1Oc1c(NS(=O)(=O)c2ccc(C(C)(C)C)cc2)nc(-c2ncccn2)nc1OCCO	f
Cc1nn(-c2cnc(OCC(C)C)c(Cl)c2)c2ccc(C(=O)NS(C)(=O)=O)cc12	t
O=C(O)C[C@H](O)C[C@H](O)/C=C/c1c(C2CC2)nc2ccccc2c1-c1ccc(F)cc1	t

Consider now this further compound.
Query: Field: below-cutoff. Rule: recorded blood plasma ratio strictly less than 0.7. Subject: "CCCCC1=NC2(CCCC2)C(=O)N1Cc1ccc(-c2ccccc2-c2nnn[nH]2)cc1"
Response: t

###

Assay remarks: physchem
Threshold rule: pKa at 0.3 h greater than or equal to 3 is rule met; below that, rule not met.

Query: State whether the measured pKa at 0.3 h reaches 3, counting equality as reaching it, for "CN(C)C(=O)CCS[C@H](SCCC(=O)O)c1cccc(/C=C/c2ccc3ccc(Cl)cc3n2)c1"
Response: rule met

Query: Determine whether measured pKa at 0.3 h meets or exceeds 3 for CCOc1cc(CC(=O)N[C@@H](CC(C)C)c2ccccc2N2CCCCC2)ccc1C(=O)O [REPAGLINIDE]
Response: rule met

Query: API: above_or_equal(metric=pKa at 0.3 h, cutoff=3) for item Nc1[nH]ncc1-c1cc(Cl)ccc1Oc1cc(F)c(S(=O)(=O)Nc2cscn2)cc1Cl [PF-05089771]
Response: rule not met

Query: # bool: pKa at 0.3 h of "CCCCc1nc(C)c(CC(=S)N(C)C)c(=O)n1Cc1ccc(-c2ccccc2-c2nnn[nH]2)cc1" >= 3
Response: rule not met

###

Assay remarks: Hepatic clearance in cynomolgus monkey administered through oral dosing
Type: ADME, Macaca fascicularis
Assay context: in vivo
// CLH lookup, one value per entry
Just the number please, in mL/min/kg, no unit attached.

Example results:
COc1ccccc1[C@H](Cn1c(=O)n(C(C)(C)C(=O)O)c(=O)c2c(C)c(-c3ncco3)sc21)OC1CCOCC1 11.3
Cc1cc(O[C@H](CCC(F)(F)F)c2ccc(C(=O)NCCC(=O)O)cc2)cc(C)c1-c1ccc(C(C)(C)C)cc1 0.29
O=C(O)[C@@H]1CCC[C@H]1C(=O)c1ccc(-c2ccc(Nc3nc4ccc(F)cc4s3)c(F)c2)cc1 2
Cc1ccc(NC(=O)C2(c3ccc4c(c3)OC(F)(F)O4)CC2)nc1-c1cccc(C(=O)O)c1 0.72

Query: Identify measured CLH associated with "Cn1cc(C(=O)O)c2ccc(N3CCC(OCc4c(-c5c(Cl)cccc5Cl)noc4C4CC4)CC3)cc21"
Response: 6

Query: Give me measured CLH, please, for this molecule: "CCC[C@H](c1ccc(C(=O)NCCC(=O)O)cc1)[C@H](c1ccc(Cl)cc1)c1c[nH]c2c(F)cc(C)cc12"
Response: 9.3

Query: Specify reported CLH for the molecule shown: "Cc1ccc(S(=O)(=O)NCCc2ccc(Oc3ccc(F)c(F)c3)cc2)cc1C(=O)O"
Response: 6.1

###

Assay context: rat, in vivo, iv, 1 mg/kg
Property name: CLH (mL/min/kg)
Respond with the bare value in mL/min/kg.

# example entries with known answers
Compound	Unit tag	Measurement
O=C(O)Cc1ccccc1Nc1c(Cl)cccc1Cl	mL/min/kg	17.5
O=C(c1ccccc1)c1ccc2n1CCC2C(=O)O (stereo not drawn)	mL/min/kg	1.3
CC(C)c1nc(N(C)S(C)(=O)=O)nc(-c2ccc(F)cc2)c1/C=C/[C@@H](O)C[C@@H](O)CC(=O)O	mL/min/kg	28.4

Query: Hello, please tell me recorded CLH for this one: "Nc1[nH]ncc1-c1cc(Cl)ccc1Oc1cc(F)c(S(=O)(=O)Nc2cscn2)cc1Cl"
Response: 6

Query: State, in one line, measured CLH of "CC[C@H](C)C(=O)O[C@H]1C[C@H](O)C=C2C=C[C@H](C)[C@H](CC[C@@H](O)C[C@@H](O)CC(=O)O)[C@H]21"
Response: 19.3

Query: Return value of CLH for input COc1ccc(Cl)cc1C(=O)NCCc1ccc(S(=O)(=O)NC(=O)NC2CCCCC2)cc1 [GLYBURIDE] , no commentary.
Response: 1.2

Query: Identify the reported CLH for the following entry. "O=C(O)C[C@H](O)C[C@H](O)/C=C/c1c(C2CC2)nc2ccccc2c1-c1ccc(F)cc1"
Response: 7.1

Query: Specify CLH for "Cc1nn(-c2cnc(OCC(C)C)c(Cl)c2)c2ccc(C(=O)NS(C)(=O)=O)cc12" and stop.
Response: 3.1

Query: For the compound "CCCc1nc2c(C)cc(-c3nc4ccccc4n3C)cc2n1Cc1ccc(-c2ccccc2C(=O)O)cc1" , give its reported CLH.
Response: 4.3

Query: Look up and state reported CLH for "CCN1CC(n2nccc2-c2cc(Cl)ccc2Oc2ccc(S(=O)(=O)Nc3cscn3)cc2C#N)C1"
Response: 271

Query: Quick one: give measured CLH for "COCc1c(C(C)C)nc(C(C)C)c(/C=C/[C@@H](O)C[C@@H](O)CC(=O)O)c1-c1ccc(F)cc1"
Response: 8.7

Query: Please report the measured CLH for "CCCCC(=O)N(Cc1ccc(-c2ccccc2-c2nnn[nH]2)cc1)[C@H](C(=O)O)C(C)C"
Response: 5.1

Query: Determine its reported CLH: "COc1ccccc1Oc1c(NS(=O)(=O)c2ccc(C(C)(C)C)cc2)nc(-c2ncccn2)nc1OCCO"
Response: 15.9

###

Assay context: human, in vivo, iv
Description: Hepatic clearance in human administered through iv dosing
Property name: CLH (mL/min/kg)
Respond numerically; units are mL/min/kg and should not be typed.

For orientation, consider the following solved cases.
Molecule	Measurement
O=C(c1ccccc1)c1ccc2n1CCC2C(=O)O (centres undefined)	0.19
CCCc1nc2c(C)cc(-c3nc4ccccc4n3C)cc2n1Cc1ccc(-c2ccccc2C(=O)O)cc1	10.2
CC[C@H](C)C(=O)O[C@H]1C[C@H](O)C=C2C=C[C@H](C)[C@H](CC[C@@H](O)C[C@@H](O)CC(=O)O)[C@H]21	7.3

Next up:
Query: Identify measured CLH associated with "O=C(O)c1cccc(Cc2cc(Cl)ccc2OCc2ccc(Cl)cc2F)n1"
Response: 2
